# Assay name: physchem
# Assay conditions: fed state simulated intestinal fluid (FeSSIF), 25 °C, fessif, thermodynamic from solid
Let's look at some compounds and their measured solubility.
Endpoint: solubility (µg/mL)

Mol	Endpoint	Units	Bound operator	Reading
CC(C)(CCN(CC(=O)O)C(=O)OCOP(=O)(O)O)C(=O)N(c1nn(CC(F)(F)F)c2c(-c3ccc(C#CC(C)(C)S(C)(=O)=O)nc3[C@H](Cc3cc(F)cc(F)c3)NC(=O)Cn3nc(C(F)(F)F)c4c3C(F)(F)[C@@H]3C[C@H]43)ccc(Cl)c12)S(C)(=O)=O	solubility	µg/mL	>	5770
CC(C)(CNC(=O)OCOP(=O)(O)O)CC(=O)N(c1nn(CC(F)(F)F)c2c(-c3ccc(C#CC(C)(C)S(C)(=O)=O)nc3[C@H](Cc3cc(F)cc(F)c3)NC(=O)Cn3nc(C(F)(F)F)c4c3C(F)(F)[C@@H]3C[C@H]43)ccc(Cl)c12)S(C)(=O)=O	solubility	µg/mL	=	440
CC(C)(C#Cc1ccc(-c2ccc(Cl)c3c(N(C(=O)CCCNC(=O)OCOP(=O)(O)O)S(C)(=O)=O)nn(CC(F)(F)F)c23)c([C@H](Cc2cc(F)cc(F)c2)NC(=O)Cn2nc(C(F)(F)F)c3c2C(F)(F)[C@@H]2C[C@H]32)n1)S(C)(=O)=O	solubility	µg/mL	=	300
CC(C)(C#Cc1ccc(-c2ccc(Cl)c3c(N(C(=O)[C@@H](N)CCCNC(=N)N)S(C)(=O)=O)nn(CC(F)(F)F)c23)c([C@H](Cc2cc(F)cc(F)c2)NC(=O)Cn2nc(C(F)(F)F)c3c2C(F)(F)[C@@H]2C[C@H]32)n1)S(C)(=O)=O	solubility	µg/mL	=	0.2

----------
# Assay conditions: 1×PBS buffer (pH 7.4), 1.0% DMSO, 24-hour incubation at ambient temperature, maximum theoretical compound concentration 100 μM
Let's look at some molecules and their measured pH 7 solubility.

Mol	Units	pH 7 solubility
CN[C@H](C(=O)N(c1nn(CC(F)(F)F)c2c(-c3ccc(C#CC(C)(C)S(C)(=O)=O)nc3[C@H](Cc3cc(F)cc(F)c3)NC(=O)Cn3nc(C(F)(F)F)c4c3C(F)(F)[C@@H]3C[C@H]43)ccc(Cl)c12)S(C)(=O)=O)C(C)C	μM	2
CC(C)(C#Cc1ccc(-c2ccc(Cl)c3c(N(C(=O)CCCOP(=O)(O)O)S(C)(=O)=O)nn(CC(F)(F)F)c23)c([C@H](Cc2cc(F)cc(F)c2)NC(=O)Cn2nc(C(F)(F)F)c3c2C(F)(F)[C@@H]2C[C@H]32)n1)S(C)(=O)=O	μM	26

----------
# Assay conditions: 1×PBS buffer (pH 7.4), 1.0% DMSO, 24-hour incubation at ambient temperature, maximum theoretical compound concentration 100 μM
Endpoint: pH 7 solubility (μM)

Mol	Reading
CN(C)CC(=O)N(c1nn(CC(F)(F)F)c2c(-c3ccc(C#CC(C)(C)S(C)(=O)=O)nc3[C@H](Cc3cc(F)cc(F)c3)NC(=O)Cn3nc(C(F)(F)F)c4c3C(F)(F)[C@@H]3C[C@H]43)ccc(Cl)c12)S(C)(=O)=O	1
CC(C)(C#Cc1ccc(-c2ccc(Cl)c3c(N(C(=O)CCCN(CC(=O)O)C(=O)OCOP(=O)(O)O)S(C)(=O)=O)nn(CC(F)(F)F)c23)c([C@H](Cc2cc(F)cc(F)c2)NC(=O)Cn2nc(C(F)(F)F)c3c2C(F)(F)[C@@H]2C[C@H]32)n1)S(C)(=O)=O	100
CN(C)CCCC[C@@H](C(=O)N(c1nn(CC(F)(F)F)c2c(-c3ccc(C#CC(C)(C)S(C)(=O)=O)nc3[C@H](Cc3cc(F)cc(F)c3)NC(=O)Cn3nc(C(F)(F)F)c4c3C(F)(F)[C@@H]3C[C@H]43)ccc(Cl)c12)S(C)(=O)=O)N(C)C	9
CC(C)(C#Cc1ccc(-c2ccc(Cl)c3c(N(C(=O)CC4(CN(CC(=O)O)C(=O)OCOP(=O)(O)O)CC4)S(C)(=O)=O)nn(CC(F)(F)F)c23)c([C@H](Cc2cc(F)cc(F)c2)NC(=O)Cn2nc(C(F)(F)F)c3c2C(F)(F)[C@@H]2C[C@H]32)n1)S(C)(=O)=O	87
CC(C)(C#Cc1ccc(-c2ccc(Cl)c3c(N(C(=O)CNC(=O)C(=O)O)S(C)(=O)=O)nn(CC(F)(F)F)c23)c([C@H](Cc2cc(F)cc(F)c2)NC(=O)Cn2nc(C(F)(F)F)c3c2C(F)(F)[C@@H]2C[C@H]32)n1)S(C)(=O)=O	90
CC(C)(C#Cc1ccc(-c2ccc(Cl)c3c(N(C(=O)CCCC(=O)OCOP(=O)(O)O)S(C)(=O)=O)nn(CC(F)(F)F)c23)c([C@H](Cc2cc(F)cc(F)c2)NC(=O)Cn2nc(C(F)(F)F)c3c2C(F)(F)[C@@H]2C[C@H]32)n1)S(C)(=O)=O	92
